system: C. pipiens Slab strain larvae; test: Larval bioassay, Slab strain (OP-susceptible); conditions: fourth-instar larvae, 24 hours exposure, 300 µM
Reported Mortality at 300 µM, Slab is given for each of the following compounds.

{"columns": ["Chemical smiles", "Experimental endpoint", "Observed value"],
 "data": [
  ["CN1C(=O)C(=Cc2ccc(Sc3ccccc3)o2)C(=O)N(C)C1=O", "Mortality at 300 µM, Slab", "0%"]
]}

For the compound `Cc1ccc(C=C2C(=O)NC(=S)N(c3ccc(C(=O)O)cc3)C2=O)o1` , report Mortality at 300 µM, Slab.
20%

For the compound `CN1C(=O)C(=Cc2ccc(-c3ccc(S(N)(=O)=O)cc3)o2)C(=O)N(C)C1=O` , report Mortality at 300 µM, Slab.
0%

For the compound `Cc1ccc(C=C2C(=O)NC(=O)N(c3ccccc3C)C2=O)o1` , report Mortality at 300 µM, Slab.
0%

For the compound `Cc1ccc(C=C2C(=O)NC(=O)N(c3cccc(Cl)c3Cl)C2=O)o1` , report Mortality at 300 µM, Slab.
0%

For the compound `Cc1ccc(C=C2C(=O)NC(=O)N(c3ccccc3)C2=O)o1` , report Mortality at 300 µM, Slab.
43%

For the compound `CCCCN1C(=O)C(=Cc2ccc(C)o2)C(=O)NC1=S` , report Mortality at 300 µM, Slab.
24%

For the compound `O=C1NC(=O)N(c2ccccc2)C(=O)C1=Cc1ccc(-c2ccccc2C(=O)O)o1` , report Mortality at 300 µM, Slab.
0%

For the compound `CN1C(=O)C(=Cc2ccc(-c3ccc4c(c3)COC4=O)o2)C(=O)N(C)C1=O` , report Mortality at 300 µM, Slab.
0%

---

molecular target: WT AChE1 (Culex pipiens, UniProt Q86GC8); conditions: read-out: Kic WT; dissociation constant of enzyme-inhibitor complex; five independent replicates
Sequence (Q86GC8 37-702): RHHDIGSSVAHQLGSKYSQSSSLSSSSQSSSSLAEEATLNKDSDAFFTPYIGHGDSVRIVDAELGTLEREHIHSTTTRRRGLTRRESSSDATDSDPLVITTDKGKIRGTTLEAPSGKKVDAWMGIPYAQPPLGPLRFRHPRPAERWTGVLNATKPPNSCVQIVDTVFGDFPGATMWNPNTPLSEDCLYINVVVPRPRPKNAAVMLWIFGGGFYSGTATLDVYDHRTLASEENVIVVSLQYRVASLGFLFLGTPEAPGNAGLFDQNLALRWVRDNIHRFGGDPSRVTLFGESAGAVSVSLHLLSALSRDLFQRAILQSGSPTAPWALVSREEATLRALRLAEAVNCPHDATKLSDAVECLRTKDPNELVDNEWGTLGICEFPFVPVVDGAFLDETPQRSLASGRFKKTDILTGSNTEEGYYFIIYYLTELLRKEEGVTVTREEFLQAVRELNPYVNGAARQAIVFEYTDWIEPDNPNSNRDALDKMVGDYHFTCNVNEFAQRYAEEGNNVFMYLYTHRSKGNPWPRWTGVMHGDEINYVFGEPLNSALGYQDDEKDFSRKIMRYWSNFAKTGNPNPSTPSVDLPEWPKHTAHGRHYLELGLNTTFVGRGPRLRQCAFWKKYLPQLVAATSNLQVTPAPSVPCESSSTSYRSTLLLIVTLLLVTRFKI
pKi: −log10 of the molar value.
Cut-off 4 on pKi, inclusive. At or above means Yes; below means No.

# count of solved cases: 2
{"columns": ["Chemical smiles", "Class assignment"],
 "data": [
  ["COc1cccc(N2C(=O)C(=Cc3ccc(C)o3)C(=O)NC2=S)c1", "Yes"],
  ["Cc1cccc(N2C(=O)C(=Cc3ccc(C)o3)C(=O)NC2=S)c1", "No"]
]}

# input for lookup
Record `Cc1ccc(C=C2C(=O)NC(=O)N(c3ccc(Cl)cc3)C2=O)o1` ; criterion: pKi no lower than 4. Met?
Yes

---

Reported Mortality at 300 µM, Slab is given for each of the following compounds.
tested on: C. pipiens Slab strain larvae; experiment: Larval bioassay, Slab strain (OP-susceptible); details: fourth-instar larvae, 24 hours exposure, 300 µM
Report the figure in % without appending any unit label.

{"columns": ["Chemical smiles", "Target desc", "Uom", "Mortality at 300 µM, Slab"],
 "data": [
  ["CN1C(=O)C(=Cc2ccc(-c3ccccc3C(=O)O)o2)C(=O)N(C)C1=O", "C. pipiens Slab strain larvae", "%", 0],
  ["Cc1ccc(C=C2C(=O)N(C)C(=O)N(C)C2=O)o1", "C. pipiens Slab strain larvae", "%", 29],
  ["CCc1ccc(N2C(=O)NC(=O)C(=Cc3ccc(C)o3)C2=O)cc1", "C. pipiens Slab strain larvae", "%", 60],
  ["Cc1ccc(C=C2C(=O)NC(=O)N(c3ccccc3F)C2=O)o1", "C. pipiens Slab strain larvae", "%", 0],
  ["CN1CCN(c2ccc(C=C3C(=O)N(C)C(=O)N(C)C3=O)o2)CC1", "C. pipiens Slab strain larvae", "%", 0]
]}

For the compound `CCOc1ccc(N2C(=O)NC(=O)C(=Cc3ccc(C)o3)C2=O)cc1` , report Mortality at 300 µM, Slab.
64

For the compound `Cc1ccc(C=C2C(=O)NC(=O)N(Cc3ccco3)C2=O)o1` , report Mortality at 300 µM, Slab.
80

For the compound `CC(=O)c1ccc(-c2ccc(C=C3C(=O)N(C)C(=O)N(C)C3=O)o2)cc1` , report Mortality at 300 µM, Slab.
0

For the compound `COc1ccccc1N1C(=O)C(=Cc2ccc(C)o2)C(=O)NC1=S` , report Mortality at 300 µM, Slab.
0

For the compound `Cc1ccc(C=C2C(=O)NC(=S)N(c3ccc(Br)cc3)C2=O)o1` , report Mortality at 300 µM, Slab.
0

For the compound `Cc1ccc(N2C(=O)NC(=O)C(=Cc3ccc(C)o3)C2=O)cc1` , report Mortality at 300 µM, Slab.
78

For the compound `CN1C(=O)C(=Cc2ccc(N(C)C)o2)C(=O)N(C)C1=O` , report Mortality at 300 µM, Slab.
20

For the compound `O=C1NC(=O)N(c2ccccc2)C(=O)C1=Cc1ccc(N2CCCCC2)s1` , report Mortality at 300 µM, Slab.
0
